Kindly state growth for each of the entries shown.
- Tested on: NCI-H23 lung
- assay text: NCI-60 one-dose screen, 48 h (100 = growth as untreated, 0 = no growth, -100 = all killed)
- condition info: 10 µM unless noted
About 83,000 compounds went through this panel and 20% of them were active in at least one assay; those are over-represented in the sample as a whole.
Report the figure in % without appending any unit label.

[Q] # growth lookup, item C=C1C(=O)O[C@H]2[C@H]1CC/C(COC(=O)NCCCCNC(=O)OC/C1=C/CC[C@@]3(C)O[C@H]3[C@H]3OC(=O)C(=C)[C@@H]3CC1)=C\CC[C@@]1(C)O[C@@H]21
[A] 38.3

[Q] # growth lookup, item O=C1OCC2=C1C(c1cccc([N+](=O)[O-])c1)c1cc3c(cc1N2CCO)CCC3 (stereo not given)
[A] 23.2

[Q] # growth lookup, item Clc1ccc2c(c1)N(c1ncnc3ccc(-c4cnc5[nH]ccc5c4)cc13)CC2
[A] 40.6

[Q] # growth lookup, item C=C1C(=O)O[C@@H]2[C@H]3[C@H](COC(C)=O)[C@@H](OC(C)=O)C[C@H]3C(=C)[C@@H](O)C[C@@H]12
[A] 96.2

[Q] # growth lookup, item COc1cc(/C=C2/C=C(c3ccc(C(C)(C)C)cc3)N(CCc3ccc(S(N)(=O)=O)cc3)C2=O)cc(OC)c1OC
[A] 62.3

---

- Tested on: NCI-H226 lung
- assay text: NCI-60 one-dose screen, 48 h
- condition info: 10 µM unless noted
This is part of a sample that, as a whole, favours compounds with a hit. Of some 83,000 tested, about 20% had one in any assay. Activity calls are given as the source filed them. The calls were made as follows: active = growth percent below 10; inactive = the rest.
The reply should be one of these categories: 1.0 (active), 0.0 (inactive)

[Q] Fill in: this test's call for C=C1CCC2C3(C)COC(c4ccc(NC(C)=O)cc4)OC3CCC2(C)C1C/C=C1/C(=O)OCC1O (centres undefined) is ___
[A] 0.0

[Q] Fill in: this test's call for N#Cc1ccccc1OCC(=O)Nc1nc2c(s1)COc1ccccc1-2 is ___
[A] 0.0

[Q] Fill in: this test's call for C[C@@H]1O[C@@H](O[C@H]2[C@@H](OC(=O)[C@]34CCC(C)(C)C[C@H]3C3=CC[C@@H]5[C@@]6(C)C[C@H](O)[C@H](O[C@@H]7O[C@H](CO)[C@@H](O)[C@H](O)[C@H]7O)[C@@](C)(CO)[C@@H]6CC[C@@]5(C)[C@]3(C)C[C@H]4O)OC[C@@H](O)[C@@H]2O)[C@H](O)[C@H](O[C@@H]2OC[C@@H](O)[C@H](O[C@@H]3OC[C@](O)(CO)[C@H]3O[C@@H]3OC[C@@H](O)[C@H](O)[C@H]3O)[C@H]2O)[C@H]1O[C@@H]1OC[C@](O)(CO)[C@H]1O is ___
[A] 0.0

[Q] Fill in: this test's call for CN(Cc1ccccc1)c1nc(Cl)c(C2CC(c3ccc(F)cc3)=NN2C=O)s1 (centres undefined) is ___
[A] 0.0

[Q] Fill in: this test's call for N=C(N)c1ccc(-c2ccc(-c3ccc(Cl)c(Cl)c3)s2)cc1 is ___
[A] 0.0

[Q] Fill in: this test's call for CC(C)(C)CC(N)=O is ___
[A] 0.0

[Q] Fill in: this test's call for O=C(/C=C/c1cccs1)Nc1ncc(Cc2ccc(Cl)c(Cl)c2)s1 is ___
[A] 0.0

[Q] Fill in: this test's call for CCN1CCN(C(=O)[C@]23CC[C@@H](C)[C@H](C)[C@@H]2C2=CC[C@@H]4[C@@]5(C)CCC(=O)C(C)(C)[C@@H]5CC[C@@]4(C)[C@]2(C)CC3)CC1 is ___
[A] 0.0

[Q] Fill in: this test's call for O=C(CN1C(=O)S/C(=C\C(Cl)=C\c2ccccc2)C1=O)NC1C=CS(=O)(=O)C1 (centres undefined) is ___
[A] 1.0

[Q] Fill in: this test's call for Clc1nccc2c(-c3csc(-c4c[nH]c5ccc(Br)cc45)n3)c[nH]c12 is ___
[A] 0.0

[Q] Fill in: this test's call for C=CCN1C=CC(=O)[C@H](O[Si](C)(C)C(C)(C)C)[C@@H]1/C=C/c1ccccc1 is ___
[A] 1.0

[Q] Fill in: this test's call for CCN1CCN(CC(=O)Nc2nc3ccc(NCc4ccc(C)cc4)cc3s2)CC1 is ___
[A] 0.0

[Q] Fill in: this test's call for CN(C)CCNc1ncc(F)c(-c2cnc3cc(-c4cnn(C)c4)ccn23)n1 is ___
[A] 0.0

[Q] Fill in: this test's call for C#CCn1cnc2cnc(Nc3cccc(NC(=O)CCl)c3)nc21 is ___
[A] 1.0

Values from PubChem BioAssay (NCI)
